Cited source for all entries: PubChem BioAssay AID743151

Let's look at some molecules and their measured pIC50.
tested on: H2122 TP53-mutant viability, CellTiter-Glo, 48 h; assay: cell killing across TP53-mutant lines, dose response, HeLa, COLO741, H2122, CellTiter-Glo, dry powder (AID 743151); conditions: measured here: H2122 viability IC50
// pIC50: -log10(molar conc.)

// below: answered molecules
O=C1CN2Cc3c(ccc(Cl)c3Cl)N=C2N1 :: 7.77
C[C@@H]1CC(=O)NN=C1c1ccc(Cl)cc1 :: 7.10
C[C@@H]1CC(=O)NN=C1c1ccc(F)c(F)c1 :: 7.34
C[C@@H]1CC(=O)NN=C1c1ccc(-c2cncnc2)cc1 :: 7.44
C[C@@H]1CC(=O)NN=C1c1ccc(C2CCCCC2)cc1 :: 7.54
CCN(CC)c1ccc(C2=NNC(=O)CC2C)cc1[N+](=O)[O-] (configuration not stated) :: 7.87
C[C@@H]1CC(=O)NN=C1c1ccc(N2CCOCC2)cc1 :: 7.52
CC(=O)Nc1ccc(C2=NNC(=O)C[C@H]2C)cc1 :: 7.90

Kindly consider the entry below.
Task: Can you share its pIC50? I mean this molecule: C[C@@H]1CC(=O)NN=C1c1ccc(N2CCOCC2)c(F)c1
Output: 8.50
